# credit: ChEMBL document CHEMBL3585295

Target: Matrix metalloproteinase-9 (Homo sapiens) (UniProt P14780)
Sequence (P14780 whole entry): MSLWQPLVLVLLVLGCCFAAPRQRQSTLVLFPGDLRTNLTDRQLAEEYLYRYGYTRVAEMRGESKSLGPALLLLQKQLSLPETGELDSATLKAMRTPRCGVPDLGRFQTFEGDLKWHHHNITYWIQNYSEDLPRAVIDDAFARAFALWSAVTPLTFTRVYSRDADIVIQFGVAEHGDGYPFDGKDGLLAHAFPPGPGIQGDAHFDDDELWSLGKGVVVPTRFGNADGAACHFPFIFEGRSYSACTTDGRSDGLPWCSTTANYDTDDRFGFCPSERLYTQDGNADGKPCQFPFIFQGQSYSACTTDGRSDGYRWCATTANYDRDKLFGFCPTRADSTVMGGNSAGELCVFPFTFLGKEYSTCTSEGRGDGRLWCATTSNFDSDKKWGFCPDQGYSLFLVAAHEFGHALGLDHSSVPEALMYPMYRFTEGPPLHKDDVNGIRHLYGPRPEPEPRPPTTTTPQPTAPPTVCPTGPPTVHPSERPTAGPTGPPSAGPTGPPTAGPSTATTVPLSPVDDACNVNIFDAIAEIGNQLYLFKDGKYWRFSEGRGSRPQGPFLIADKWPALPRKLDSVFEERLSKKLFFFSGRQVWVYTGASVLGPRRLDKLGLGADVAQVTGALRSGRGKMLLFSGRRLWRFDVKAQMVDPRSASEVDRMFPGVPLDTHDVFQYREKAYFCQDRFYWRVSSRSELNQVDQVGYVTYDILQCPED
Assay: Inhibition of MMP-9 activity in human HT1080 cells by gelatin zymography
Assay type: cell-based
Settings: HT-1080
Active and inactive are the calls of the source. No cut-off for these calls is given here.
Outcomes you can answer with include only these: 1 (yes) for active, 0 (no) for inactive

COc1ccc(-c2oc3cc(OC)cc(OC)c3c(=O)c2-c2c(-c3ccc(OC)cc3)oc3cc(OC)cc(OC)c3c2=O)cc1 : 0 (no)
COc1ccc2c(=O)c(-c3c(-c4ccccc4)oc4cc(OC)ccc4c3=O)c(-c3ccccc3)oc2c1 : 0 (no)
COc1ccc(-c2oc3cc(O)cc(O)c3c(=O)c2-c2c(-c3ccc(OC)cc3)oc3cc(O)cc(O)c3c2=O)cc1 : 1 (yes)
COc1ccccc1-c1oc2ccccc2c(=O)c1-c1c(-c2ccccc2OC)oc2ccccc2c1=O : 0 (no)
COc1ccc(-c2oc3ccccc3c(=O)c2-c2c(-c3ccc(OC)cc3)oc3ccccc3c2=O)cc1 : 0 (no)

**Query** # outcome recorded in this test, key = "COc1cc(OC)c2c(=O)c(-c3c(-c4ccccc4)oc4cc(OC)cc(OC)c4c3=O)c(-c3ccccc3)oc2c1"
**Result** 0 (no)

----------
Biological target: 72 kDa type IV collagenase (Homo sapiens)
Assay: Inhibition of MMP-2 activity in human HT1080 cells by gelatin zymography
Type: cell-based
Conditions: HT-1080
The source made the active and inactive calls. No cut-off for these calls is given here.
Outcomes you can answer with include only these: Yes = active, No = inactive

Field: example entries. Status: answers known.
COc1ccccc1-c1oc2ccccc2c(=O)c1-c1c(-c2ccccc2OC)oc2ccccc2c1=O : No
COc1ccc(-c2oc3cc(O)cc(O)c3c(=O)c2-c2c(-c3ccc(OC)cc3)oc3cc(O)cc(O)c3c2=O)cc1 : Yes
COc1ccc(-c2oc3cc(OC)cc(OC)c3c(=O)c2-c2c(-c3ccc(OC)cc3)oc3cc(OC)cc(OC)c3c2=O)cc1 : No
COc1ccc(-c2oc3ccccc3c(=O)c2-c2c(-c3ccc(OC)cc3)oc3ccccc3c2=O)cc1 : No
COc1cc(OC)c2c(=O)c(-c3c(-c4ccccc4)oc4cc(OC)cc(OC)c4c3=O)c(-c3ccccc3)oc2c1 : No

We next turn to a different compound, shown below.
**Query** # outcome recorded in this test, key = "COc1ccc2c(=O)c(-c3c(-c4ccccc4)oc4cc(OC)ccc4c3=O)c(-c3ccccc3)oc2c1"
**Result** No
